All values here come from patent US8987249B2.

biological target: recombinant human DPPI (Cathepsin C) (Homo sapiens (Human)); test: Inhibition of human DPPI (Cathepsin C); details: substrate Gly-Arg-AMC
pIC50: −log10 of the molar value.
Could you label it label 1 if measured pIC50 is 8 or higher, and label 0 otherwise?

Input line: Does pIC50 meet or surpass 8 for N#CC(Cc1ccc2c(c1)[nH]c(=O)c1ccccc12)NC(=O)[C@H]1N[C@@H]2CC[C@H]1C2 (stereo partly shown) ?
Output line: label 0

Input line: Does pIC50 meet or surpass 8 for N#C[C@H](Cc1ccc(-c2csc(C(N)=O)c2)cc1F)NC(=O)[C@H]1N[C@@H]2CC[C@H]1C2 ?
Output line: label 1

Input line: Does pIC50 meet or surpass 8 for Cn1cc(-c2ccc(C[C@@H](C#N)NC(=O)[C@H]3N[C@@H]4CC[C@H]3C4)c(F)c2)ccc1=O ?
Output line: label 1

###

target: recombinant human DPPI (Cathepsin C) (Homo sapiens (Human), UniProt P53634); test: Inhibition of human DPPI (Cathepsin C); details: substrate Gly-Arg-AMC
Sequence (P53634 231-394): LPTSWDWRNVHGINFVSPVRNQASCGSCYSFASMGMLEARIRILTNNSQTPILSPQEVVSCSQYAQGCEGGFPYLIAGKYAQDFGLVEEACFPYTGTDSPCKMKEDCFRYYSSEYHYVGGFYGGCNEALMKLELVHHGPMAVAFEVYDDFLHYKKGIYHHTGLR
Sequence (P53634 395-463): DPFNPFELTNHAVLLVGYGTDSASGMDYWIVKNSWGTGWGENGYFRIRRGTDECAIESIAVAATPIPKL
Sequence (P53634 25-134): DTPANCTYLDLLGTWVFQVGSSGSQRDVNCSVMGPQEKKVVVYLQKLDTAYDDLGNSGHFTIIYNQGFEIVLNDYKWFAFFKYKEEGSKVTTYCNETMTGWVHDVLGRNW
Hi! Just check whether IC50 is below 5 nM. Below gives rule met, equal or above gives rule not met.

Input line: Is IC50 strictly under 5 nM for the entry CC(C)N1CCN(C(=O)c2cc(-c3ccc(C[C@@H](C#N)NC(=O)[C@H]4N[C@@H]5CC[C@H]4C5)c(F)c3)cs2)CC1 [Example 227] ?
Output line: rule met

Input line: Is IC50 strictly under 5 nM for the entry CCOc1nc(-c2ccc(C[C@@H](C#N)NC(=O)[C@H]3N[C@@H]4CC[C@H]3C4)c(F)c2)cs1 [Example 172] ?
Output line: rule not met

Input line: Is IC50 strictly under 5 nM for the entry N#C[C@H](Cc1ccc(N2CCN3CCOC[C@H]3C2)cc1F)NC(=O)[C@H]1N[C@@H]2CC[C@H]1C2 [Example 250] ?
Output line: rule met

Input line: Is IC50 strictly under 5 nM for the entry N#CC(Cc1ccc(-c2cnn(C3CCOCC3)c2)cc1F)NC(=O)[C@H]1N[C@@H]2CC[C@H]1C2 (some centres unmarked) [Example 116] ?
Output line: rule not met

Input line: Is IC50 strictly under 5 nM for the entry CCCn1cc(-c2ccc(C[C@@H](C#N)NC(=O)[C@H]3N[C@@H]4CC[C@H]3C4)c(F)c2)cn1 [Example 30] ?
Output line: rule met

Input line: Is IC50 strictly under 5 nM for the entry CN1C(=O)C(C)(C)c2ccc(-c3ccc(C[C@@H](C#N)NC(=O)[C@H]4N[C@@H]5CC[C@H]4C5)c(F)c3)cc21 [Example 199] ?
Output line: rule not met

Input line: Is IC50 strictly under 5 nM for the entry N#C[C@H](Cc1ccc(N2CCN3CCOCC3C2)cc1F)NC(=O)[C@H]1N[C@@H]2CC[C@H]1C2 (some centres unmarked) [Example 43] ?
Output line: rule not met

Input line: Is IC50 strictly under 5 nM for the entry CNC(=O)c1cc(-c2ccc(C[C@@H](C#N)NC(=O)[C@H]3N[C@@H]4CC[C@H]3C4)c(F)c2)cs1 [Example 161] ?
Output line: rule met

Input line: Is IC50 strictly under 5 nM for the entry N#Cc1ccc(-c2ccc(CC(C#N)NC(=O)[C@H]3N[C@@H]4CC[C@H]3C4)c(F)c2)cc1F (some centres unmarked) [Example 35] ?
Output line: rule met

Input line: Is IC50 strictly under 5 nM for the entry CC(O)Cc1cn(-c2ccc(C[C@@H](C#N)NC(=O)[C@H]3N[C@@H]4CC[C@H]3C4)c(F)c2)nn1 (some centres unmarked) [Example 101] ?
Output line: rule not met

Input line: Is IC50 strictly under 5 nM for the entry N#C[C@H](Cc1ccc(-c2cc(-c3ccccc3)no2)cc1F)NC(=O)[C@H]1N[C@@H]2CC[C@H]1C2 [Example 96] ?
Output line: rule not met

Input line: Is IC50 strictly under 5 nM for the entry N#Cc1ccc(-c2ccc(C[C@@H](C#N)NC(=O)[C@H]3N[C@H]4C[C@@H]3[C@@H]3C[C@@H]34)c(F)c2)cc1F [Example 132] ?
Output line: rule not met

Input line: Is IC50 strictly under 5 nM for the entry N#CC(Cc1ccc(-c2ccc3c(c2)CCNC3=O)cc1F)NC(=O)[C@H]1N[C@H]2C[C@@H]1[C@@H]1C[C@@H]12 (some centres unmarked) [Example 148] ?
Output line: rule not met

Input line: Is IC50 strictly under 5 nM for the entry CS(=O)(=O)c1cc(-c2ccc(C[C@@H](C#N)NC(=O)[C@H]3N[C@@H]4CC[C@H]3C4)c(F)c2F)ccc1C#N [Example 183] ?
Output line: rule not met

###

Task for the reader: assign each of the following compounds its reported half-life at 1 μM.
assay: Determination of metabolic stability with human liver microsomes; conditions: human, pooled human liver microsomes, pH 7.6

Input line: Can you share its half-life at 1 μM? I mean this compound: CS(=O)(=O)c1cccc(-c2ccc(C[C@@H](C#N)NC(=O)[C@H]3N[C@@H]4CC[C@H]3C4)c(F)c2)c1
Output line: > 2.17 h

Input line: Can you share its half-life at 1 μM? I mean this compound: COCCn1cc(-c2ccc(CC(C#N)NC(=O)[C@H]3N[C@@H]4CC[C@H]3C4)c(F)c2)cn1 (stereo partly shown)
Output line: > 2.17 h

Input line: Can you share its half-life at 1 μM? I mean this compound: CN1C(=O)C(C)(C)c2ccc(-c3ccc(C[C@@H](C#N)NC(=O)[C@H]4N[C@@H]5CC[C@H]4C5)c(F)c3)cc21
Output line: 1.47 h

Input line: Can you share its half-life at 1 μM? I mean this compound: CN1CCN(c2ccc(C[C@@H](C#N)NC(=O)[C@H]3N[C@@H]4CC[C@H]3C4)c(F)c2)C(=O)C1
Output line: > 2.17 h

###

target: recombinant human Cathepsin K (Homo sapiens (Human)); test: Inhibition of human Cathepsin K; conditions: substrate Z-Gly-Pro-Arg-AMC
Each record's IC50 is compared with small value: < 3 µM; mid value: ≥ 3 µM and < 5 µM; large value: ≥ 5 µM to give its class.

Input line: Categorize the following entry: N#C[C@H](Cc1ccc(-c2csc(C(N)=O)c2)cc1F)NC(=O)[C@H]1N[C@@H]2CC[C@H]1C2
Output line: large value

Input line: Categorize the following entry: N#C[C@H](Cc1ccc(-c2cccc(C(N)=O)c2)cc1F)NC(=O)[C@H]1N[C@H]2C[C@@H]1[C@@H]1C[C@@H]12
Output line: large value

Input line: Categorize the following entry: CN1CCC(N2C(=O)Cc3ccc(-c4ccc(C[C@@H](C#N)NC(=O)[C@H]5N[C@@H]6CC[C@H]5C6)c(F)c4)cc32)CC1
Output line: mid value

Input line: Categorize the following entry: COC(=O)c1cc(-c2ccc(C[C@@H](C#N)NC(=O)[C@H]3N[C@@H]4CC[C@H]3C4)c(F)c2)cs1
Output line: large value

Input line: Categorize the following entry: CN1CCN(S(=O)(=O)c2ccc(-c3ccc(C[C@@H](C#N)NC(=O)[C@H]4N[C@@H]5CC[C@H]4C5)c(F)c3)cc2)CC1
Output line: small value

Input line: Categorize the following entry: N#C[C@H](Cc1ccc(-n2cc(CCN3CCOCC3)nn2)cc1F)NC(=O)[C@H]1N[C@@H]2CC[C@H]1C2
Output line: small value

Input line: Categorize the following entry: CCC(O)Cc1cn(-c2ccc(C[C@@H](C#N)NC(=O)[C@H]3N[C@@H]4CC[C@H]3C4)c(F)c2)nn1 (some centres unmarked)
Output line: large value

Input line: Categorize the following entry: N#C[C@H](Cc1ccc(-c2cc[nH]n2)cc1F)NC(=O)[C@H]1N[C@@H]2CC[C@H]1C2
Output line: large value

Input line: Categorize the following entry: N#C[C@H](Cc1ccc(-c2cccc(C(N)=O)c2)cc1F)NC(=O)[C@H]1N[C@@H]2CC[C@H]1C2
Output line: small value

Input line: Categorize the following entry: N#C[C@H](Cc1ccc(N2CCN(c3ccccc3)CC2)cc1F)NC(=O)[C@H]1N[C@@H]2CC[C@H]1C2
Output line: mid value

Input line: Categorize the following entry: N#CC(Cc1ccc(-c2ccc3c(c2)COC3=O)cc1F)NC(=O)[C@H]1N[C@@H]2CC[C@H]1C2 (some centres unmarked)
Output line: small value

Input line: Categorize the following entry: CN1CCC(c2ccc(C[C@@H](C#N)NC(=O)[C@H]3N[C@@H]4CC[C@H]3C4)c(F)c2)CC1
Output line: small value

Input line: Categorize the following entry: CS(=O)(=NC#N)c1cccc(-c2ccc(C[C@@H](C#N)NC(=O)[C@H]3N[C@@H]4CC[C@H]3C4)c(F)c2)c1 (some centres unmarked)
Output line: small value

Input line: Categorize the following entry: N#C[C@H](Cc1ccc(-c2ccco2)cc1F)NC(=O)[C@H]1N[C@@H]2CC[C@H]1C2
Output line: mid value

###

biological target: recombinant human Cathepsin K (Homo sapiens (Human), UniProt P43235); assay: Inhibition of human Cathepsin K; settings: substrate Z-Gly-Pro-Arg-AMC
Sequence (P43235 115-329): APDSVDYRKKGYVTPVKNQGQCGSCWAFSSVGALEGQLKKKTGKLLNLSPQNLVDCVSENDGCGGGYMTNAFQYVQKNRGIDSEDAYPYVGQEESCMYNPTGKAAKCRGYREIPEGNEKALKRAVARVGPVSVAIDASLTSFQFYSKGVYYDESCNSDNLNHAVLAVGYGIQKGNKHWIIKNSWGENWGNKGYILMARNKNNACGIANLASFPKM
Task for the reader: assign each of the following molecules its reported log10 IC50.
Friendly reminder: values = log10 of IC50, unit µM.

Input line: Can you share its log10 IC50? I mean this molecule: CNC(=O)c1cc(-c2ccc(C[C@@H](C#N)NC(=O)[C@H]3N[C@@H]4CC[C@H]3C4)c(F)c2)cs1 [Example 161]
Output line: 1.03

Input line: Can you share its log10 IC50? I mean this molecule: N#C[C@H](Cc1ccc(-c2ccccc2)cc1F)NC(=O)[C@H]1N[C@@H]2CC[C@H]1C2 [Example 75]
Output line: 0.72

Input line: Can you share its log10 IC50? I mean this molecule: N#CC(Cc1ccc(-c2ccc3c(c2)CNC3=O)cc1F)NC(=O)[C@H]1N[C@@H]2CC[C@H]1C2 (stereo partly drawn) [Example 41]
Output line: 0.67

Input line: Can you share its log10 IC50? I mean this molecule: CS(=O)(=O)Nc1ccc(-c2ccc(CC(C#N)NC(=O)[C@H]3N[C@@H]4CC[C@H]3C4)c(F)c2)cc1 (stereo partly drawn) [Example 62]
Output line: 0.59

Input line: Can you share its log10 IC50? I mean this molecule: N#Cc1ccc(-c2ccc(C[C@@H](C#N)NC(=O)[C@H]3N[C@H]4C[C@@H]3[C@@H]3C[C@@H]34)c(F)c2)cc1F [Example 132]
Output line: 1.09

Input line: Can you share its log10 IC50? I mean this molecule: Cc1occc1-c1ccc(CC(C#N)NC(=O)[C@H]2N[C@@H]3CC[C@H]2C3)c(F)c1 (stereo partly drawn) [Example 92]
Output line: 0.91

Input line: Can you share its log10 IC50? I mean this molecule: CC(C)Cn1cc(-c2ccc(C[C@@H](C#N)NC(=O)[C@H]3N[C@@H]4CC[C@H]3C4)c(F)c2)cn1 [Example 64]
Output line: 0.62

Input line: Can you share its log10 IC50? I mean this molecule: N#CC(Cc1ccc(-c2ccc3c(c2)CCNC3=O)cc1F)NC(=O)[C@H]1N[C@@H]2CC[C@H]1C2 (stereo partly drawn) [Example 49]
Output line: 0.81

Input line: Can you share its log10 IC50? I mean this molecule: N#C[C@H](Cc1cc2c(=O)[nH]c3cc(F)ccc3c2cc1F)NC(=O)[C@H]1N[C@@H]2CC[C@H]1C2 [Example 323]
Output line: -0.05

Input line: Can you share its log10 IC50? I mean this molecule: N#C[C@H](Cc1ccc(N2CCN(CCO)CC2)cc1F)NC(=O)[C@H]1N[C@@H]2CC[C@H]1C2 [Example 190]
Output line: 0.57

Input line: Can you share its log10 IC50? I mean this molecule: Cc1noc(C)c1-c1ccc(C[C@@H](C#N)NC(=O)[C@H]2N[C@@H]3CC[C@H]2C3)c(F)c1 [Example 121]
Output line: 0.72

Input line: Can you share its log10 IC50? I mean this molecule: CS(=O)(=O)c1cc(-c2cc(F)c(CC(C#N)NC(=O)[C@H]3N[C@@H]4CC[C@H]3C4)c(F)c2)ccc1C#N (stereo partly drawn) [Example 52]
Output line: 1.23

Input line: Can you share its log10 IC50? I mean this molecule: N#C[C@H](Cc1ccc(N2CCN(CC3CCCO3)CC2)cc1F)NC(=O)[C@H]1N[C@@H]2CC[C@H]1C2 (stereo partly drawn) [Example 154]
Output line: 0.66

Input line: Can you share its log10 IC50? I mean this molecule: CS(=O)(=O)N1CCN(c2ccc(C[C@@H](C#N)NC(=O)[C@H]3N[C@@H]4CC[C@H]3C4)c(F)c2)CC1 [Example 91]
Output line: 0.40
